Tested on: IGROV1 ovarian
Assay: NCI tumour cell line growth inhibition, 48 h
outcome_measure: GI50

>>> result("Cc1cc(O)c(-c2ccc([C@@H](C)CN(C)C)cc2)c2c1[nH]c(=O)c1sccc12")
"534 nM"
>>> result("C[CH2][Sn]([CH2]C)([O]C(=O)c1ccc(F)cc1)[O]C(=O)c1ccc(F)cc1")
"> 80500 nM"
>>> result("O=C([O-])CC(=O)[O-].[NH-][C@@H]1CCCC[C@H]1[NH-].[Pt+4]")
"33500 nM"
>>> result("COc1ccc2nc3cc(Cl)ccc3c(Nc3cc(CN4CCCC4)c(O)c(CN4CCCC4)c3)c2n1")
"2510 nM"
>>> result("CCC[CH2][Sn]1([CH2]CCC)[S]CC[N]1S(=O)(=O)c1ccc(C)cc1")
"1700 nM"
>>> result("CCCCn1c(=O)c(/C=C/C(=O)/C=C/c2cc3ccccc3n(CCCC)c2=O)cc2ccccc21")
"1460 nM"
>>> result("CC[C@H](C)[C@H](NC(=O)c1cccn1C)C(=O)N(C)[C@H](C[C@@H](OC(C)=O)c1nc(C(=O)N[C@@H](Cc2ccccc2)C[C@H](C)C(=O)OC)cs1)C(C)C")
"228 nM"
>>> result("CCn1c(-c2nonc2N)nc2c(N3CCCC3)nccc21")
"12000 nM"
>>> result("Cc1cccc2c1[nH]c(=O)c1c3ccccc3cn21")
"3690 nM"

----------
Tested on: HS 578T breast
Assay: NCI tumour cell line growth inhibition, 48 h; in the data active means GI50 below about 0.43 µM; inactive means the rest
Outcome codes: true (1) for active, false (0) for inactive

>>> category("O=C1NC(c2ccccc2)C2(C(=O)O)CN(C3CC3)c3cc(N4CCNCC4)c(F)cc3C2N1 (stereo not drawn)")
"false (0)"
>>> category("C[N+](C)=c1ccc2nc3c(cc(NCCCNc4cc5oc6cc(=[N+](C)C)ccc-6nc5c5ccccc45)c4ccccc43)oc-2c1")
"false (0)"
>>> category("Cc1cccc2c1[nH]c(=O)c1c3ccccc3cn21")
"false (0)"
>>> category("O=C(Nc1cccc(C(F)(F)F)c1)Oc1ccc(Cl)c2cccnc12")
"false (0)"
>>> category("O=c1[nH]c(=O)n(C2CC(O)C(CO)O2)cc1C(F)(F)F (stereo not drawn)")
"false (0)"
>>> category("CC(C)c1ccc(NC(=O)Cc2ccc(Nc3ncnc4cc(-c5cnn(CCN(C)C)c5)ccc34)cc2)cc1")
"false (0)"
>>> category("CC1SC(c2ccc(Cl)cc2Cl)N(NC(=O)C(O)c2ccccc2)C1=O (stereo not drawn)")
"false (0)"
>>> category("COc1cc(CNc2oc(-c3ccccc3)c(-c3ccccc3)c2C#N)cc(CN2CCN(C)CC2)c1O")
"false (0)"
>>> category("CO/N=C(\\COc1ccc2oc(-c3ccccc3)cc(=O)c2c1)c1ccc(F)cc1")
"false (0)"
>>> category("COc1ccc(S(=O)(=O)N(C(C)=O)c2ccccc2/C=C/c2cc[n+]([O-])cc2)cc1")
"true (1)"
>>> category("CCn1c(-c2nonc2N)nc2c(N3CCCC3)nccc21")
"false (0)"
>>> category("CN1CCN(CCCOc2cc(O)c3c(=O)cc(-c4ccccc4)oc3c2)CC1")
"false (0)"
>>> category("N#CC1=C(N)NC(=O)NC12Nc1ccccc1N2")
"false (0)"

Attribution: PubChem BioAssay (NCI)
